Tested on: 439559-082-T-J2-PDC complex spheroid growth
experiment: Anticancer human tumor 439559-082-T-J2-PDC patient-derived colon adenocarcinoma cell line growth inhibition [Asc]
experimental_setup: second compound 0.3 µM; first compound 0.1 µM; active compounds read low
Source text: Multicellular complex tumor spheroid response to apoptosis pathway targeting inhibitors Alrizomadlin, Pelcitoclax, and Dasminapant in combination with a variety of drugs and investigational agents in selected tumor cell lines […] Compounds. […] If the clinical Cmax for an agent had not been determined, the highest concentration tested was 10 microM. […]
# note: boundary value 90% maps to rule not met; viability, T/C below it maps to rule met

{"columns": ["molecule", "assayed_target", "class_name"],
 "data": [
  ["CCN1CCN(Cc2ccc(Nc3ncc(F)c(-c4cc(F)c5nc(C)n(C(C)C)c5c4)n3)nc2)CC1 + CCN1C(C(=O)NC23CCC(C(=O)O)(CC2)CC3)C(c2cccc(Cl)c2F)C2(C(=O)Nc3cc(Cl)ccc32)C12CCCCC2", "439559-082-T-J2-PDC complex spheroid growth", "rule met"],
  ["O=C(c1cc(Cc2n[nH]c(=O)c3ccccc23)ccc1F)N1CCN(C(=O)C2CC2)CC1 + CCN1C(C(=O)NC23CCC(C(=O)O)(CC2)CC3)C(c2cccc(Cl)c2F)C2(C(=O)Nc3cc(Cl)ccc32)C12CCCCC2", "439559-082-T-J2-PDC complex spheroid growth", "rule not met"],
  ["CNC(C)C(=O)NC1CN(S(=O)(=O)c2cccc(S(=O)(=O)N3CCC4CCC(C(=O)NC(c5ccccc5)c5ccccc5)N4C(=O)C(NC(=O)C(C)NC)C3)c2)CCC2CCC(C(=O)NC(c3ccccc3)c3ccccc3)N2C1=O (stereo not given) + CCN1C(C(=O)NC23CCC(C(=O)O)(CC2)CC3)C(c2cccc(Cl)c2F)C2(C(=O)Nc3cc(Cl)ccc32)C12CCCCC2", "439559-082-T-J2-PDC complex spheroid growth", "rule not met"],
  ["COc1c(OCCCN2CCOCC2)ccc2c3n(c(=NC(=O)c4cnc(N)nc4)nc12)CCN3 + CCN1C(C(=O)NC23CCC(C(=O)O)(CC2)CC3)C(c2cccc(Cl)c2F)C2(C(=O)Nc3cc(Cl)ccc32)C12CCCCC2", "439559-082-T-J2-PDC complex spheroid growth", "rule met"],
  ["Cn1ncnc1[C@H]1c2n[nH]c(=O)c3cc(F)cc(c23)N[C@@H]1c1ccc(F)cc1 + CCN1C(C(=O)NC23CCC(C(=O)O)(CC2)CC3)C(c2cccc(Cl)c2F)C2(C(=O)Nc3cc(Cl)ccc32)C12CCCCC2", "439559-082-T-J2-PDC complex spheroid growth", "rule not met"],
  ["O=C(c1ccc(F)c(F)c1Nc1ccc(I)cc1F)N1CC(O)([C@@H]2CCCCN2)C1 + CCN1C(C(=O)NC23CCC(C(=O)O)(CC2)CC3)C(c2cccc(Cl)c2F)C2(C(=O)Nc3cc(Cl)ccc32)C12CCCCC2", "439559-082-T-J2-PDC complex spheroid growth", "rule met"],
  ["C#Cc1c(F)ccc2cc(O)cc(-c3ncc4c(N5CC6CCC(C5)N6)nc(OCC56CCCN5CC(F)C6)nc4c3F)c12 (stereo not given) + CCN1C(C(=O)NC23CCC(C(=O)O)(CC2)CC3)C(c2cccc(Cl)c2F)C2(C(=O)Nc3cc(Cl)ccc32)C12CCCCC2", "439559-082-T-J2-PDC complex spheroid growth", "rule met"],
  ["C=C(F)C(=O)N1CCN(c2nc(OCC3CCCN3C)nc3c2CCN(c2cccc4cccc(Cl)c24)C3)CC1CC#N (stereo not given) + CCN1C(C(=O)NC23CCC(C(=O)O)(CC2)CC3)C(c2cccc(Cl)c2F)C2(C(=O)Nc3cc(Cl)ccc32)C12CCCCC2", "439559-082-T-J2-PDC complex spheroid growth", "rule not met"],
  ["C=CC(=O)N1CCN(c2nc(=O)n(-c3c(C)ccnc3C(C)C)c3nc(-c4c(O)cccc4F)c(F)cc23)C(C)C1 (stereo not given) + CCN1C(C(=O)NC23CCC(C(=O)O)(CC2)CC3)C(c2cccc(Cl)c2F)C2(C(=O)Nc3cc(Cl)ccc32)C12CCCCC2", "439559-082-T-J2-PDC complex spheroid growth", "rule not met"],
  ["NC1CCC(NC2CC2c2ccccc2)CC1 (stereo not given) + CCN1C(C(=O)NC23CCC(C(=O)O)(CC2)CC3)C(c2cccc(Cl)c2F)C2(C(=O)Nc3cc(Cl)ccc32)C12CCCCC2", "439559-082-T-J2-PDC complex spheroid growth", "rule not met"]
]}

* * *

Reported viability, T/C values for the following compounds.
Tested on: 439559-082-T-J2-PDC complex spheroid growth
experiment: Anticancer human tumor 439559-082-T-J2-PDC cell line growth inhibition [Asc];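 further: spheroids exposed to agents for 7 days starting day 3 after seeding; percent of DMSO vehicle control viability with 100% = vehicle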
experimental_setup: second compound 0.949 µM; first compound 0.316 µM; active compounds read low
reported_endpoint: viability, T/C

{"columns": ["compound", "reported_endpoint", "result"],
 "data": [
  ["O=C(c1ccc(F)c(F)c1Nc1ccc(I)cc1F)N1CC(O)([C@@H]2CCCCN2)C1 + CCN1C(C(=O)NC23CCC(C(=O)O)(CC2)CC3)C(c2cccc(Cl)c2F)C2(C(=O)Nc3cc(Cl)ccc32)C12CCCCC2", "viability, T/C", "41.1%"],
  ["C=CC(=O)N1CCN(c2nc(=O)n(-c3c(C)ccnc3C(C)C)c3nc(-c4c(O)cccc4F)c(F)cc23)C(C)C1 (configuration not stated) + CCN1C(C(=O)NC23CCC(C(=O)O)(CC2)CC3)C(c2cccc(Cl)c2F)C2(C(=O)Nc3cc(Cl)ccc32)C12CCCCC2", "viability, T/C", "117%"]
]}

* * *

Reported viability, T/C values for the following molecules.
System: 439559-082-T-J2-PDC complex spheroid growth
experiment: Anticancer human tumor 439559-082-T-J2-PDC cell line growth inhibition [Asc];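 further: spheroids exposed to agents for 7 days starting day 3 after seeding; percent of DMSO vehicle control viability with 100% = vehicle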
experimental_setup: second compound 0.0949 µM; first compound 0.01 µM; active compounds read low
From the text: Multicellular complex tumor spheroid response to apoptosis pathway targeting inhibitors Alrizomadlin, Pelcitoclax, and Dasminapant in combination with a variety of drugs and investigational agents in selected tumor cell lines […] Compounds. […] If the clinical Cmax for an agent had not been determined, the highest concentration tested was 10 microM. […]

{"columns": ["molecule", "viability, T/C (%)"],
 "data": [
  ["Cn1ncnc1[C@H]1c2n[nH]c(=O)c3cc(F)cc(c23)N[C@@H]1c1ccc(F)cc1 + CCN1C(C(=O)NC23CCC(C(=O)O)(CC2)CC3)C(c2cccc(Cl)c2F)C2(C(=O)Nc3cc(Cl)ccc32)C12CCCCC2", 83.4],
  ["O=C(c1ccc(F)c(F)c1Nc1ccc(I)cc1F)N1CC(O)([C@@H]2CCCCN2)C1 + CCN1C(C(=O)NC23CCC(C(=O)O)(CC2)CC3)C(c2cccc(Cl)c2F)C2(C(=O)Nc3cc(Cl)ccc32)C12CCCCC2", 106],
  ["CNC(C)C(=O)NC1CN(S(=O)(=O)c2cccc(S(=O)(=O)N3CCC4CCC(C(=O)NC(c5ccccc5)c5ccccc5)N4C(=O)C(NC(=O)C(C)NC)C3)c2)CCC2CCC(C(=O)NC(c3ccccc3)c3ccccc3)N2C1=O (stereo unspecified) + CCN1C(C(=O)NC23CCC(C(=O)O)(CC2)CC3)C(c2cccc(Cl)c2F)C2(C(=O)Nc3cc(Cl)ccc32)C12CCCCC2", 110],
  ["COc1c(OCCCN2CCOCC2)ccc2c3n(c(=NC(=O)c4cnc(N)nc4)nc12)CCN3 + CCN1C(C(=O)NC23CCC(C(=O)O)(CC2)CC3)C(c2cccc(Cl)c2F)C2(C(=O)Nc3cc(Cl)ccc32)C12CCCCC2", 96.9],
  ["NC1CCC(NC2CC2c2ccccc2)CC1 (stereo unspecified) + CCN1C(C(=O)NC23CCC(C(=O)O)(CC2)CC3)C(c2cccc(Cl)c2F)C2(C(=O)Nc3cc(Cl)ccc32)C12CCCCC2", 100],
  ["CCN1CCN(Cc2ccc(Nc3ncc(F)c(-c4cc(F)c5nc(C)n(C(C)C)c5c4)n3)nc2)CC1 + CCN1C(C(=O)NC23CCC(C(=O)O)(CC2)CC3)C(c2cccc(Cl)c2F)C2(C(=O)Nc3cc(Cl)ccc32)C12CCCCC2", 107]
]}

* * *

Test system: 439559-082-T-J2-PDC complex spheroid growth
experiment: Anticancer human tumor 439559-082-T-J2-PDC cell line growth inhibition [Asc];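 further: spheroids exposed to agents for 7 days starting day 3 after seeding; percent of DMSO vehicle control viability with 100% = vehicle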
experimental_setup: second compound 3 µM; first compound 0.0316 µM; active compounds read low
From the text: Multicellular complex tumor spheroid response to apoptosis pathway targeting inhibitors Alrizomadlin, Pelcitoclax, and Dasminapant in combination with a variety of drugs and investigational agents in selected tumor cell lines […] Compounds. […] If the clinical Cmax for an agent had not been determined, the highest concentration tested was 10 microM. […]

{"columns": ["compound", "assayed_target", "viability, T/C"],
 "data": [
  ["C=CC(=O)N1CCN(c2nc(=O)n(-c3c(C)ccnc3C(C)C)c3nc(-c4c(O)cccc4F)c(F)cc23)C(C)C1 (stereo not given) + CCN1C(C(=O)NC23CCC(C(=O)O)(CC2)CC3)C(c2cccc(Cl)c2F)C2(C(=O)Nc3cc(Cl)ccc32)C12CCCCC2", "439559-082-T-J2-PDC complex spheroid growth", "94.7%"],
  ["C=C(F)C(=O)N1CCN(c2nc(OCC3CCCN3C)nc3c2CCN(c2cccc4cccc(Cl)c24)C3)CC1CC#N (stereo not given) + CCN1C(C(=O)NC23CCC(C(=O)O)(CC2)CC3)C(c2cccc(Cl)c2F)C2(C(=O)Nc3cc(Cl)ccc32)C12CCCCC2", "439559-082-T-J2-PDC complex spheroid growth", "88.3%"],
  ["NC1CCC(NC2CC2c2ccccc2)CC1 (stereo not given) + CCN1C(C(=O)NC23CCC(C(=O)O)(CC2)CC3)C(c2cccc(Cl)c2F)C2(C(=O)Nc3cc(Cl)ccc32)C12CCCCC2", "439559-082-T-J2-PDC complex spheroid growth", "94.1%"],
  ["Cn1ncnc1[C@H]1c2n[nH]c(=O)c3cc(F)cc(c23)N[C@@H]1c1ccc(F)cc1 + CCN1C(C(=O)NC23CCC(C(=O)O)(CC2)CC3)C(c2cccc(Cl)c2F)C2(C(=O)Nc3cc(Cl)ccc32)C12CCCCC2", "439559-082-T-J2-PDC complex spheroid growth", "84.4%"],
  ["C#Cc1c(F)ccc2cc(O)cc(-c3ncc4c(N5CC6CCC(C5)N6)nc(OCC56CCCN5CC(F)C6)nc4c3F)c12 (stereo not given) + CCN1C(C(=O)NC23CCC(C(=O)O)(CC2)CC3)C(c2cccc(Cl)c2F)C2(C(=O)Nc3cc(Cl)ccc32)C12CCCCC2", "439559-082-T-J2-PDC complex spheroid growth", "73.6%"]
]}
